# systemName: LAT1 (Mus musculus)
# Construct: endogenous in cells; host or cells: mouse primary astrocytes (C57BL/6JOlaHsd), cortex and hippocampi
# methodNotes: Ability to bind to LAT1: inhibition of [14C]-L-leucine uptake in astrocytes
# Assay type: cell-based
# experimentalSetup: mouse primary astrocytes, 0.76 μM [14C]-L-leucine, 5 min, 37 °C
recordedEndpoint: IC50 (µM)
Numbers only, in µM.

Entry CNC(=O)COc1ccc(-c2c(C#N)c(NC(=O)c3cccc(C[C@H](N)C(=O)O)c3)n3c(nc4ccccc43)c2C#N)cc1 [LAT1 inhibitor, KMH-233, reference compound] — recorded IC50 = 14.4

---

# systemName: LAT1 (Mus musculus, UniProt Q9Z127)
# Construct: endogenous in cells; host or cells: mouse primary astrocytes (C57BL/6JOlaHsd), cortex and hippocampi
# Sequence (Q9Z127 whole entry): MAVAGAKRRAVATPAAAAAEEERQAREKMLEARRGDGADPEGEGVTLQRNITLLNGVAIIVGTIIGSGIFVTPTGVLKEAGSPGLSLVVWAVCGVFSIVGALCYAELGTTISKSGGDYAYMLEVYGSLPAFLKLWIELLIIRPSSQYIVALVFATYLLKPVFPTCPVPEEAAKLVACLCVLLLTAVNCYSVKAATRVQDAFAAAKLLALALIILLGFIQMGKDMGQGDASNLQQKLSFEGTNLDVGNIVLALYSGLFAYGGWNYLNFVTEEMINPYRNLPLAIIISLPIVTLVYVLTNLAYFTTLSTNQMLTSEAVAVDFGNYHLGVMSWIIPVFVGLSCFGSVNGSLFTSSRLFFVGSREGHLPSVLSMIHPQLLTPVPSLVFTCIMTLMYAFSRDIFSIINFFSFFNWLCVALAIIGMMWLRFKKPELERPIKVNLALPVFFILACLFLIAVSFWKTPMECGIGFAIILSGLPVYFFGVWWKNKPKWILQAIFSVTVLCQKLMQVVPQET
# Sequence (P10852 whole entry partner): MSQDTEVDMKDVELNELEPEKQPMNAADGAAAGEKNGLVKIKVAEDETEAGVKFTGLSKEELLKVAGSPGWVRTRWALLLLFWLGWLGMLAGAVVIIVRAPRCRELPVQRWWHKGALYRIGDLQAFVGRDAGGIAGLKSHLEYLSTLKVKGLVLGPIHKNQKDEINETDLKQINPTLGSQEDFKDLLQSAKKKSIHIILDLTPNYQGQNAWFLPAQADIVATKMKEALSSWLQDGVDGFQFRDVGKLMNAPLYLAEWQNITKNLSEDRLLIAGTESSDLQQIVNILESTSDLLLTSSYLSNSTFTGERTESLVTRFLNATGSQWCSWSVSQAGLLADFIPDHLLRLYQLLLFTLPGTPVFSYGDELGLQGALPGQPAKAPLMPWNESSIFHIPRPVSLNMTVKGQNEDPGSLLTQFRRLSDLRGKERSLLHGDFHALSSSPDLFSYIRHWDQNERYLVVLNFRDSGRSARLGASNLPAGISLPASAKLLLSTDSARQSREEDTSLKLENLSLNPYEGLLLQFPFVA
# methodNotes: Ability to bind to LAT1: inhibition of [14C]-L-leucine uptake in astrocytes
# Format: cell-based
# experimentalSetup: mouse primary astrocytes, 0.76 μM [14C]-L-leucine, 5 min, 37 °C; listed as LAT1-inhibitor
recordedEndpoint: pIC50
Give bare numbers, as −log10 of the molar value.

In plain terms, CNC(=O)COc1ccc(-c2c(C#N)c(NC(=O)c3cccc(C[C@H](N)C(=O)O)c3)n3c(nc4ccccc43)c2C#N)cc1 [LAT1 inhibitor, KMH-233, reference compound] has a documented pIC50 of 4.85

Data origin, for the record: paper PMC7515946
